Consider the following molecules and their measured Population Pyknosed Nuclei (%) readings.
Tested on: Fibroblast
Assay: Multiplex assay against human fibroblast
Format: toxicity, cell-based
Details: 24 h, 10 µM, compound concentration 10 uM, replicate 2
Numbers only; they are read as %.

Consider the worked cases shown below.
S=C(NCCCc1c[nH]cn1)NCCCN(Cc1ccc(Cl)c(Cl)c1)c1ccc(Br)cn1: 62
CN1CCC(=C2c3ccccc3CC(=O)c3sccc32)CC1.O=C(O)/C=C/C(=O)O [KETOTIFEN FUMARATE]: 27
Cn1nc(C(F)(F)F)cc1-c1cnc(N2CCc3cc(S(=O)(=O)Nc4c(F)cc(Cl)cc4F)cc(N4CCCC4=O)c32)nc1 [TP-020]: 11
CCOc1cc2ncc(C#N)c(Nc3ccc(OCc4ccccn4)c(Cl)c3)c2cc1NC(=O)/C=C/CN(C)C [NERATINIB]: 14
CN(C)C(=O)C(CCN1CCC(O)(c2ccc(Cl)cc2)CC1)(c1ccccc1)c1ccccc1.Cl [LOPERAMIDE HYDROCHLORIDE]: 62
CCN1CCN(c2ccc(Nc3cc(N(C)C(=O)Nc4c(Cl)c(OC)cc(OC)c4Cl)ncn3)cc2)CC1 [INFIGRATINIB]: 10
COc1ccc(S(=O)(=O)N(CCO)c2ccccc2CN(C)C/C=C/c2ccc(Cl)cc2)cc1.O=P(O)(O)O: 7
CCN1CCN(Cc2ccc(Nc3ncc(F)c(-c4cc(F)c5nc(C)n(C(C)C)c5c4)n3)nc2)CC1.CS(=O)(=O)O: 59
O=C1N/C(=N/c2ccccc2F)S/C1=C\c1ccc(C(=O)O)cc1: 5
CNc1cc(Oc2cc(C(=O)Nc3cc(N4CCN(C)CC4)cc(C(F)(F)F)c3)ccc2C)ncn1: 60

Enquiry: Any idea what its Population Pyknosed Nuclei (%) is? The molecule is COc1ccc(-c2ccc3c(N4CCOCC4)nc(N4C[C@@H](C)O[C@@H](C)C4)nc3n2)cc1CO [Ku-0063794]
Return: 1

Enquiry: Which Population Pyknosed Nuclei (%) is reported for this molecule? CCCS(=O)(=O)Nc1ccc(F)c(C(=O)c2c[nH]c3ncc(Cl)cc23)c1F [PLX-4720]
Return: 5

Enquiry: Population Pyknosed Nuclei (%) for O=C1NC(=O)C(c2cnc3ccccn23)=C1c1cn2c3c(cc(F)cc13)CN(C(=O)N1CCCCC1)CC2 [LY-2090314] ?
Return: 24

Enquiry: Which Population Pyknosed Nuclei (%) value is on record for Cc1ccc2nc(NCCN)c3ncc(C)n3c2c1.O=C(O)C(F)(F)F.O=C(O)C(F)(F)F ?
Return: 16

Enquiry: GET /values?readout=Population Pyknosed Nuclei (%)&item= O=C(Nc1ccc(-c2ccnc(Nc3ccc(N4CCOCC4)cc3)n2)cc1)[C@@H]1CCCN1
Return: 17

Enquiry: Bench note: what Population Pyknosed Nuclei (%) did CCn1c(=O)c(-c2ccc(-c3cncs3)cc2Cl)cc2cnc(Nc3ccc(N4CCN(C)CC4)cc3)nc21 show?
Return: 14

* * *

System: Fibroblast
Assay: Multiplex assay against human fibroblast
Type: toxicity, cell-based
Details: 12 h, 10 µM, compound concentration 10 uM, replicate 2
property_label: Population Hoechst High Intensity Objects (%)
Answer with a number only, understood to be in %.

CCN1CCN(Cc2ccc(Nc3ncc(F)c(-c4cc(F)c5nc(C)n(C(C)C)c5c4)n3)nc2)CC1.CS(=O)(=O)O: 9
CCc1cccc(CC)c1NC(=O)c1nn(C)c2c1CCc1cnc(Nc3ccc(N4CCN(C)CC4)cc3OC)nc1-2: 21

Query compound follows.
Enquiry: Provide the documented Population Hoechst High Intensity Objects (%) with Fibroblast as the system for Cc1cn(-c2cc(NC(=O)c3ccc(C)c(Nc4nccc(-c5cccnc5)n4)c3)cc(C(F)(F)F)c2)cn1 [NILOTINIB]
Return: 7
